The entries below come with measured half-life at 1 µM values attached.
method-notes: Chemical reactivity of the compound with N-Boc-Lysine assessed as half-life at 1 uM by HPLC analysis
Type: physicochemical
run-conditions: incubation with N-Boc-Lysine
measured-quantity: half-life at 1 µM

• COc1ncc(-c2ccc3ncnc(N[C@H]4CCN(C(=O)C5CCOCC5)C4)c3n2)cc1C(=O)Oc1ccc(C#N)cc1 = < 1 min
• COc1ncc(-c2ccc3ncnc(N[C@H]4CCN(C(=O)C5CCOCC5)C4)c3n2)cc1C(=O)Oc1ccc(F)cc1F = 3.2 min
• COC(=O)c1cc(-c2ccc3ncnc(N[C@H]4CCN(C(=O)C5CCOCC5)C4)c3n2)cnc1OC = > 1440 min
• O=Cc1cc(-c2ccc3ncnc(N[C@H]4CCN(C(=O)C5CCOCC5)C4)c3n2)ccc1O = < 1 min

###

method-notes: Growth inhibition of PI3Kdelta-overexpressing human SU-DHL-6 cells incubated for 72 hrs by MTT assay
Assay type: functional
# reported log10 of GI50; entries follow
measured-quantity: log10 of GI50 (log10 of the value in nM)

* COc1ncc(-c2ccc3ncnc(N[C@H]4CCN(C(=O)C5CCOCC5)C4)c3c2)cc1C#N | 3.66
* COc1ncc(-c2ccc3ncnc(N[C@H]4CCN(C(=O)C5CCOCC5)C4)c3c2)cc1C(=O)Oc1ccc(C(F)(F)F)cc1 | 2.12
* O=Cc1cc(-c2ccc3ncnc(N[C@H]4CCN(C(=O)C5CCOCC5)C4)c3c2)ccc1O | 2.51
* COc1ncc(-c2ccc3ncnc(N[C@H]4CCN(C(=O)C5CCOCC5)C4)c3c2)cc1C(=O)Oc1ccc(C#N)cc1 | 1.43
* COc1ncc(-c2ccc3ncnc(N[C@H]4CCN(C(=O)C5CCOCC5)C4)c3n2)cc1C(=O)Oc1ccc(C(F)(F)F)cc1 | 1.98
* COc1ccc(OC(=O)c2cc(-c3ccc4ncnc(N[C@H]5CCN(C(=O)C6CCOCC6)C5)c4c3)cnc2OC)cc1 | 0.78
* COc1ncc(-c2ccc3ncnc(N[C@H]4CCN(C(=O)C5CCOCC5)C4)c3n2)cc1C(=O)Oc1ccc(C)cc1 | 0.90
* COc1ncc(-c2ccc3ncnc(N[C@H]4CCN(C(=O)C5CCOCC5)C4)c3c2)cc1C(=O)Oc1ccc(F)cc1F | 1.81
* COc1ncc(-c2ccc3ncnc(N[C@H]4CCN(C(=O)C5CCOCC5)C4)c3n2)cc1C(=O)Oc1ccc([N+](=O)[O-])cc1 | 1.30
* COc1ncc(-c2ccc3ncnc(N[C@H]4CCN(C(=O)C5CCOCC5)C4)c3c2)cc1C(=O)Oc1cccnc1 | 1.28
* COc1ncc(-c2ccc3ncnc(N[C@H]4CCN(C(=O)C5CCOCC5)C4)c3c2)cc1CCl | 2.49
* C#Cc1ccc(-c2ccc3ncnc(N[C@H]4CCN(C(=O)C5CCOCC5)C4)c3n2)cc1C=O | 2.63
* COc1ncc(-c2ccc3ncnc(N[C@H]4CCN(C(=O)C5CCOCC5)C4)c3n2)cc1C(=O)Oc1ccc(C#N)cc1 | 1.51
* C=CC(=O)Nc1cc(-c2ccc3ncnc(N[C@H]4CCN(C(=O)C5CCOCC5)C4)c3c2)cnc1OC | 2.85
* COc1ncc(-c2ccc3ncnc(N[C@H]4CCN(C(=O)C5CCOCC5)C4)c3c2)cc1C(=O)Oc1ccccc1 | 0.48
* COc1ncc(-c2ccc3ncnc(N[C@H]4CCN(C(=O)C5CCOCC5)C4)c3c2)cc1C(=O)Oc1ccc(F)cc1 | 0.48
* COc1ncc(-c2ccc3ncnc(N[C@H]4CCN(C(=O)C5CCOCC5)C4)c3c2)cc1C(=O)Oc1ccc([N+](=O)[O-])cc1 | 1.72
* COc1ncc(-c2ccc3ncnc(N[C@H]4CCN(C(=O)C5CCOCC5)C4)c3n2)cc1CCl | 2.53
* COc1ncc(-c2ccc3ncnc(N[C@H]4CCN(C(=O)C5CCOCC5)C4)c3n2)cc1C(=O)Oc1c(F)cc(F)cc1F | 1.81
* COc1ncc(-c2ccc3ncnc(N[C@H]4CCN(C(=O)C5CCOCC5)C4)c3n2)cc1C=O | 2.54
* COc1ccc(OC(=O)c2cc(-c3ccc4ncnc(N[C@H]5CCN(C(=O)C6CCOCC6)C5)c4n3)cnc2OC)cc1 | 0.90
* COc1ncc(-c2ccc3ncnc(N[C@H]4CCN(C(=O)C5CCOCC5)C4)c3c2)cc1C(=O)Oc1c(F)cc(F)cc1F | 1.51
* COc1ncc(-c2ccc3ncnc(N[C@H]4CCN(C(=O)C5CCOCC5)C4)c3c2)cc1C(=O)Oc1ccc(Cl)cc1 | 1.20
* C=CC(=O)Nc1cc(-c2ccc3ncnc(N[C@H]4CCN(C(=O)C5CCOCC5)C4)c3n2)cnc1OC | 2.81
* COc1ncc(-c2ccc3ncnc(N[C@H]4CCN(C(=O)C5CCOCC5)C4)c3n2)cc1C(=O)Oc1ccc(Cl)cc1 | 2.20
* C#Cc1ccc(-c2ccc3ncnc(N[C@H]4CCN(C(=O)C5CCOCC5)C4)c3c2)cc1C=O | 2.93
